// each record: one item and its IC50 for UniProt:P56524
Sequence (P56524 648-1057): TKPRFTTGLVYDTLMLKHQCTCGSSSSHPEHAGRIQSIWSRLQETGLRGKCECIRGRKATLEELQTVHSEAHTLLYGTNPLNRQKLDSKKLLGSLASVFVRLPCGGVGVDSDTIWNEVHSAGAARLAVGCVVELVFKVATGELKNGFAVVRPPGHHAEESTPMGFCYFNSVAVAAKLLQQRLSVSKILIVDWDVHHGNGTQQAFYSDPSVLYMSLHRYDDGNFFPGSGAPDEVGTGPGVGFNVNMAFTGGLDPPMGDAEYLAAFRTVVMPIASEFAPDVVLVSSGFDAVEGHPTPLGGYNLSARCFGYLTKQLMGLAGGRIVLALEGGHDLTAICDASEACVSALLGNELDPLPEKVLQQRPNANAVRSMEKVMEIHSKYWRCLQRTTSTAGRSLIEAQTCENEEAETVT

Form field IC50, entry O=C(CCc1ccccc1)CCc1ccc(O)c(O)c1 : > 40 µM

* * *

pIC50: −log10 of the molar value.
// each record: one item and its pIC50 for UniProt Q9UQL6
Sequence (Q9UQL6 whole entry): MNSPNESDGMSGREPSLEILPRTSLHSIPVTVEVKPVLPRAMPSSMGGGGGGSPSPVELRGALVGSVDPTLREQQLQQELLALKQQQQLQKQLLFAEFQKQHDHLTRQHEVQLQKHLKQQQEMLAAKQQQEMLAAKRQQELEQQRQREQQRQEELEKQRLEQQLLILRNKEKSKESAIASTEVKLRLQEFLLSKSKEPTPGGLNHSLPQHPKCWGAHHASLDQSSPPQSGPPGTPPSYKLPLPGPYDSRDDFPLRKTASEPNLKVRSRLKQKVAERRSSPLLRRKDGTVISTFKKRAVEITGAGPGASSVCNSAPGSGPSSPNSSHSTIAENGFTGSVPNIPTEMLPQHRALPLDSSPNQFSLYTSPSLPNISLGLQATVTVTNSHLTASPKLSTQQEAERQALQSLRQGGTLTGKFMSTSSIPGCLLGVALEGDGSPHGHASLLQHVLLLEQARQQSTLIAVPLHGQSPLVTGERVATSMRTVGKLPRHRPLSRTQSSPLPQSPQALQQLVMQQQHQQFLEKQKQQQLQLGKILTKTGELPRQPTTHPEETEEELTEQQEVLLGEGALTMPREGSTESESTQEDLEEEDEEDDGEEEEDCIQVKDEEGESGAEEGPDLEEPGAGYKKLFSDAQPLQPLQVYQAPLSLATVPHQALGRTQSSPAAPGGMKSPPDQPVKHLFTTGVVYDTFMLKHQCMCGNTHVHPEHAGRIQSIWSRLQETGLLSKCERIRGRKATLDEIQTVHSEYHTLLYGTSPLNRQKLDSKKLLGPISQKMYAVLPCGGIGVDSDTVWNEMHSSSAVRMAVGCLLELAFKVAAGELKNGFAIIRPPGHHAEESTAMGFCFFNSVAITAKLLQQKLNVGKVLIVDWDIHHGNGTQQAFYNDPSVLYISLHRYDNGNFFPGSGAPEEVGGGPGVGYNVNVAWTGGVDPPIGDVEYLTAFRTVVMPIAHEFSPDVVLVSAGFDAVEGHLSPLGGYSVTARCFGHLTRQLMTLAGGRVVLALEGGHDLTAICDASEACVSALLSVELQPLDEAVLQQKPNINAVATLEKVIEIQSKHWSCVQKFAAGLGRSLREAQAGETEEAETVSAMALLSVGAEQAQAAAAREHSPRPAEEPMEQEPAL

O=C(/C=C/c1ccc(O)c(Cl)c1)CCCCc1ccccc1 = < 4.40

Form field pIC50, entry O=C(/C=C/c1ccc(O)c(O)c1)CCc1ccccc1 : 4.81

Form field pIC50, entry O=C(/C=C/c1ccc(O)c(Br)c1)CCCCc1ccccc1 : < 4.40

Form field pIC50, entry O=C(CCc1ccc(O)c(O)c1)c1ccccc1 : 5.21

Form field pIC50, entry O=C(CCCc1ccccc1)CCc1ccc(O)c(O)c1 : 5.12

Form field pIC50, entry O=C(/C=C/c1cccc(O)c1)CCCCc1ccccc1 : < 4.40
